- Test system: HEK-293T
- experimental protocol: Multiplex assay against HEK293T
- Type: toxicity, cell-based
- measurement conditions: human, 12 h, 10 µM, compound concentration 10 uM, replicate 2
Threshold check on Population Pyknosed Nuclei (%): at or above 80% gives criterion met, strictly below gives criterion not met.

Would you please look over these solved cases?
INSERT INTO assay_data (molecule, group_label) VALUES
  ('CNc1nc(NCc2ccc(NS(C)(=O)=O)cc2Cl)cc(-c2ccccn2)n1', 'criterion not met'),
  ('CN(C)C(=O)/C(C#N)=C/c1ccc(-c2nc3cnc4[nH]ccc4c3n2C2CCCCC2)o1', 'criterion not met'),
  ('Cn1cc(-c2[nH]c3cc(NC(=O)[C@H](N)C4CCCCC4)cc4c3c2C=NNC4=O)cn1', 'criterion not met'),
  ('Cc1c(-c2ccc(O)cc2)n(Cc2ccc(OCCN3CCCCCC3)cc2)c2ccc(O)cc12', 'criterion met'),
  ('Cc1cc(C)cc(-c2cnc3cc(Cl)c(-c4cccc(O)c4)cc3c2OCCCN)c1', 'criterion not met'),
  ('COc1cc(-n2cnc3cc(-c4ccc(Cl)cc4)sc3c2=O)ccc1OCCN1CCCC1', 'criterion not met'),
  ('CCN(CC)CCCCNc1ncc2cc(-c3cc(OC)cc(OC)c3)c(NC(=O)NC(C)(C)C)nc2n1', 'criterion not met'),
  ('COc1cc2nccc(Oc3ccc(NC(=O)Nc4cc(C)on4)c(Cl)c3)c2cc1OC.O', 'criterion not met');

Please check the record COc1ncc(-c2ccc3nccc(-c4ccnnc4)c3c2)cc1NS(=O)(=O)c1ccc(F)cc1F and state if its Population Pyknosed Nuclei (%) is at or above 80%.
criterion met

Please check the record COc1cccc([C@@H](C)NCCCc2ccccc2Cl)c1.Cl [TECALCET HYDROCHLORIDE] and state if its Population Pyknosed Nuclei (%) is at or above 80%.
criterion not met

Please check the record C=CC(=O)Nc1cccc(C(=O)Nc2ccc(Nc3cc(-c4[nH]c(SC)nc4C)ccn3)cc2)c1 and state if its Population Pyknosed Nuclei (%) is at or above 80%.
criterion not met

Please check the record C[C@@H](NCCCc1cccc(C(F)(F)F)c1)c1cccc2ccccc12.Cl [CINACALCET HYDROCHLORIDE] and state if its Population Pyknosed Nuclei (%) is at or above 80%.
criterion met

Please check the record C=CC(=O)Nc1cc2c(Nc3ccc(F)c(Cl)c3)ncnc2cc1OCCCN1CCOCC1.Cl.Cl [CANERTINIB DIHYDROCHLORIDE] and state if its Population Pyknosed Nuclei (%) is at or above 80%.
criterion not met

Please check the record C=CC(=O)Nc1ccc2ncnc(Nc3ccc(OCc4cccc(F)c4)c(Cl)c3)c2c1.Cc1ccc(S(=O)(=O)O)cc1 and state if its Population Pyknosed Nuclei (%) is at or above 80%.
criterion not met

Please check the record Cc1[nH]c(/C=C2\C(=O)Nc3ccc(S(=O)(=O)N(C)c4cccc(Cl)c4)cc32)c(C)c1C(=O)N1CCN(C)CC1 and state if its Population Pyknosed Nuclei (%) is at or above 80%.
criterion not met

Please check the record Cc1nc(Nc2n[nH]c3c2CN(C(=O)N[C@H](CN(C)C)c2ccccc2)C3(C)C)c2sccc2n1 and state if its Population Pyknosed Nuclei (%) is at or above 80%.
criterion not met
